Tested on: DU145 human prostate cancer
Experiment: MTT cytotoxicity assay, DU145
Type: cell-based
Details: androgen independent, Rb−/−, 72 hours, read-out: TCS50
pIC50: −log10 of the molar value.
Below, each entry is listed with its recorded pIC50.

| molecule | assay target | pIC50 |
| --- | --- | --- |
| C=C(C=O)[C@@H]1CC[C@]2(C(=O)O)CC[C@]3(C)[C@H](CC[C@@H]4[C@@]5(C)CC[C@H](O)C(C)(C)[C@@H]5CC[C@]43C)[C@@H]12 | DU145 human prostate cancer | 5.55 |
| COC(=O)C12CCC3(C)C(CCC4C5(C)CCC(OC(C)=O)C(C)(C)C5CCC43C)C1=C(C(C)C)C(=O)C2=O (centres unmarked) | DU145 human prostate cancer | 5.70 |

* * *

Test system: Saos2 human
Experiment: MTT cytotoxicity assay, Saos2
Type: cell-based
Conditions: Saos2, human rhabdomyosarcoma, p53−/−, Rb−/−, 72 hours, read-out: TCS50

| compound | assay target | unit abbrev | IC50 |
| --- | --- | --- | --- |
| C=C(C=O)[C@@H]1CC[C@]2(C(=O)O)CC[C@]3(C)[C@H](CC[C@@H]4[C@@]5(C)CC[C@H](O)C(C)(C)[C@@H]5CC[C@]43C)[C@@H]12 | Saos2 human | µM | 4.8 |
| COC(=O)C12CCC3(C)C(CCC4C5(C)CCC(OC(C)=O)C(C)(C)C5CCC43C)C1=C(C(C)C)C(=O)C2=O (centres unmarked) | Saos2 human | µM | 7.9 |
